The origin of these recorded values is PubChem BioAssay (NCI).

- Test system: SF-539 CNS
- protocolNotes: NCI-60 one-dose screen, 48 h (100 = growth as untreated, 0 = no growth, -100 = all killed)
- setupConditions: 10 µM unless noted
About 83,000 compounds went through this panel and 20% of them were active in at least one assay; those are over-represented in the sample as a whole.
experimentalEndpoint: growth (%)
# number only, unit % dropped from output

- O=C(Nc1ccc(-n2cc(-c3ccncc3)c(-c3ccc(O)c(Cl)c3)n2)cc1)Nc1cc(C(F)(F)F)cc(C(F)(F)F)c1: 62.4
- O=S(c1ccccc1)c1ccc2nnnn2n1 (configuration not stated): 102
- S=C=NP1(N=C=S)=NP(N=C=S)(N=C=S)=NP(N=C=S)(N=C=S)=NP(N=C=S)(N=C=S)=N1 (configuration not stated): 94.7
- CC(C)(CCN=C(N)Nc1ccccn1)c1ccc(C(F)(F)F)cc1: 53.9
- NC(=S)NNC1CCCCC1: 96.4
- Nc1ncnc2c1c(C(F)(F)F)cn2[C@@H]1O[C@H](CO)[C@@H](O)[C@H]1O: -31.7

Below: the item to evaluate.
stdin: # lookup: SF-539 CNS growth, key = `Fc1ccc(/C=N/n2c(-c3cc(Cl)cc(Cl)c3Cl)nn(CNc3ccc(Cl)nn3)c2=S)cc1`
stdout: 97.6
